Test system: HEK293T (UBE3A T485A transfected, BAR Wnt reporter)
Assay: Wnt reporter firefly/Renilla luciferase ratio relative to plate median (fold (linear ratio)); higher = more Wnt/beta-catenin reporter activation
Settings: concentration: 100 uM; 24 h
Over roughly 1,100 compounds, “Wnt reporter firefly/Renilla luciferase ratio relative to plate median” has its median near 1.1; the highest 2% begin near 1.6. This excerpt belongs to a sample that is enriched for the highest values.
Entry flag: met if Wnt reporter firefly/Renilla luciferase ratio reaches 1; not met if it does not.

Field: example entries. Status: answers known.
>  <molecule>
O=P(O)(O)CCCl

>  <label.value>
met

$$$$
>  <molecule>
c1ccc2c(c1)oc1ccccc12

>  <label.value>
met

$$$$
>  <molecule>
CNC(=O)ON=C(C)SC

>  <label.value>
met

$$$$
>  <molecule>
COc1ccc(C(c2ccc(OC)cc2)C(Cl)(Cl)Cl)cc1

>  <label.value>
met

$$$$

Decide: Wnt reporter firefly/Renilla luciferase ratio of C=CCOC(=O)c1ccccc1C(=O)OCC=C [Diallyl phthalate] >= 1?
met

Try `CCOP(=S)(OCC)SCn1c(=O)oc2cc(Cl)ccc21` next.
not met

Try COc1cc(OC)nc(NC(=O)[N-]S(=O)(=O)c2ncccc2OCC(F)(F)F)n1.[Na+] [Trifloxysulfuron-sodium] next.
met

Try `CCCCN(CCCC)SN(C)C(=O)Oc1cccc2c1OC(C)(C)C2` next.
met

Try `COP(=O)(OC)SCn1c(=O)oc2cc(Cl)cnc21` next.
not met

Try `CNC(=O)ON=C(SC)C(=O)N(C)C` next.
not met

Try CCOCCOC(C)=O [2-Ethoxyethyl acetate] next.
met

Try `Nc1ccc([N+](=O)[O-])cc1` next.
not met

Try `N#Cc1c[nH]cc1-c1cccc2c1OC(F)(F)O2` next.
not met

Try CC1(C)C(C=C(Cl)Cl)C1C(=O)OC(C#N)c1cccc(Oc2ccccc2)c1 (stereo unspecified) next.
not met

Try `Clc1ccc(Cl)c(Cl)c1` next.
met

Try `Nc1c(Cl)c(Cl)nc(C(=O)O)c1Cl` next.
met

Try `NCCO.O=C(O)c1nc(Cl)ccc1Cl` next.
met

Try `Clc1cccc(Cl)c1` next.
met

Try `O=C(O)c1nc(Cl)ccc1Cl` next.
met

Try `ClC1=C(Cl)[C@]2(Cl)[C@H]3[C@H]([C@@H]4C=C[C@H]3C4)[C@@]1(Cl)C2(Cl)Cl` next.
met

Try `c1ccc(-c2ccccc2)cc1` next.
met
